Values compiled from patent US10495796B2.

TEST DESCRIPTION: Absorption characteristics: transmission spectrum of near-infrared absorbing layer of NIR filter (UV-visible spectrophotometer)
Format: physicochemical
MEASUREMENT SETUP: transparent resin acrylic resin BR50, nd(B) 1.56, film thickness 2.3 μm
EXPERIMENTAL READOUT: λb

Check out these entries, answers already filled in.
[[record]]
molecule = "Cc1ccc(C)c(OCCCC(C)(C)C(=O)Nc2cc3c(cc2C2=C([O-])C(=c4cc5c(cc4NC(=O)C(C)(C)CCCOc4cc(C)ccc4C)=[N+](C)C(C)C5(C)C)C2=O)C(C)(C)C(C)N3C)c1 (stereo not drawn)"
experimental_readout = "λb"
obs_value = "713 nm"

[[record]]
molecule = "CCCC(C)(C)C(=O)Nc1cc2c(cc1C1=C([O-])C(=c3cc4c(cc3NC(=O)C(C)(C)CCC)=[N+](C)C(C)C4(C)C)C1=O)C(C)(C)C(C)N2C (stereo not drawn)"
experimental_readout = "λb"
obs_value = "714 nm"

[[record]]
molecule = "CCCCCCCCCCCC(=O)Nc1cc2c(cc1C1=C([O-])C(=c3cc4c(cc3NC(=O)CCCCCCCCCCC)=[N+](C)C(C)C4(C)C)C1=O)C(C)(C)C(C)N2C (stereo not drawn) [Example A11-25, reference compound]"
experimental_readout = "λb"
obs_value = "718 nm"

[[record]]
molecule = "CCCCCCCC(=O)Nc1cc2c(cc1C1=C([O-])C(=c3cc4c(cc3NC(=O)CCCCCCC)=[N+](C)C(C)C4(C)C)C1=O)C(C)(C)C(C)N2C (stereo not drawn) [Example A11-24, reference compound]"
experimental_readout = "λb"
obs_value = "718 nm"

[[record]]
molecule = "CC(CCC(C(=O)Nc1cc2c(cc1C1=C([O-])C(=c3cc4c(cc3NC(=O)C(CCC(C)CC(C)(C)C)C(C)CC(C)(C)C)=[N+](C)C(C)C4(C)C)C1=O)C(C)(C)C(C)N2C)C(C)CC(C)(C)C)CC(C)(C)C (stereo not drawn)"
experimental_readout = "λb"
obs_value = "718 nm"

[[record]]
molecule = "CCCC(CCC)C(=O)Nc1cc2c(cc1C1=C([O-])C(=c3cc4c(cc3NC(=O)C(CCC)CCC)=[N+](C)C(C)C4(C)C)C1=O)C(C)(C)C(C)N2C (stereo not drawn)"
experimental_readout = "λb"
obs_value = "719 nm"


Could you share which λb value was measured for CCCCC(CC)C(=O)Nc1cc2c(cc1C1=C([O-])C(=c3cc4c(cc3NC(=O)C(CC)CCCC)=[N+](C)C(C)C4(C)C)C1=O)C(C)(C)C(C)N2C (stereo not drawn) ?
719 nm

Could you share which λb value was measured for CC(=O)Nc1cc2c(cc1C1=C([O-])C(=c3cc4c(cc3NC(C)=O)=[N+](C)C(C)C4(C)C)C1=O)C(C)(C)C(C)N2C (stereo not drawn) [Example A11-20, reference compound] ?
717 nm

Could you share which λb value was measured for CCCCC(CC)C(=O)Nc1cc2c(cc1C1=C([O-])C(=c3cc4c(cc3NC(=O)C(CC)CCCC)=[N+](C(C)C)C(C)C4(C)C)C1=O)C(C)(C)C(C)N2C(C)C (stereo not drawn) ?
715 nm

----------
Here the recorded Is value (nd(B)×(λa-λc)) is given for each entry.
TEST DESCRIPTION: Absorption characteristics: transmission spectrum of near-infrared absorbing layer of NIR filter (UV-visible spectrophotometer)
Type: physicochemical
MEASUREMENT SETUP: transparent resin polycarbonate EP5000, nd(B) 1.63, film thickness 2.4 μm

Check out these entries, answers already filled in.
[[record]]
molecule = "CCCC(C)(C)C(=O)Nc1cc2c(cc1C1=C([O-])C(=c3cc4c(cc3NC(=O)C(C)(C)CCC)=[N+](C)C(C)C4(C)C)C1=O)C(C)(C)C(C)N2C (stereo not drawn) [Example A11-14]"
obs_value = 112.6

[[record]]
molecule = "Cc1ccc(C)c(OCCCC(C)(C)C(=O)Nc2cc3c(cc2C2=C([O-])C(=c4cc5c(cc4NC(=O)C(C)(C)CCCOc4cc(C)ccc4C)=[N+](C)C(C)C5(C)C)C2=O)C(C)(C)C(C)N3C)c1 (stereo not drawn) [Example A11-13]"
obs_value = 111.0


Could you share which Is value (nd(B)×(λa-λc)) value was measured for CCCCC(CC)C(=O)Nc1cc2c(cc1C1=C([O-])C(=c3cc4c(cc3NC(=O)C(CC)CCCC)=[N+](C(C)C)C(C)C4(C)C)C1=O)C(C)(C)C(C)N2C(C)C (stereo not drawn) [Example A11-7] ?
104.5

----------
TEST DESCRIPTION: Absorption characteristics: transmission spectrum of near-infrared absorbing layer of NIR filter (UV-visible spectrophotometer)
Format: physicochemical
MEASUREMENT SETUP: transparent resin polycarbonate SP3810, nd(B) 1.63, film thickness 2.8 μm
EXPERIMENTAL READOUT: λc (nm)
Numeric answer only, unit nm assumed.

Could you share which λc value was measured for Cc1ccc(C)c(OCCCC(C)(C)C(=O)Nc2cc3c(cc2C2=C([O-])C(=c4cc5c(cc4NC(=O)C(C)(C)CCCOc4cc(C)ccc4C)=[N+](C)C(C)C5(C)C)C2=O)C(C)(C)C(C)N3C)c1 (stereo not drawn) [Example A11-13] ?
620

Could you share which λc value was measured for CCCCC(CC)C(=O)Nc1cc2c(cc1C1=C([O-])C(=c3cc4c(cc3NC(=O)C(CC)CCCC)=[N+](C(C)C)C(C)C4(C)C)C1=O)C(C)(C)C(C)N2C(C)C (stereo not drawn) [Example A11-7] ?
636

Could you share which λc value was measured for CC(=O)Nc1cc2c(cc1C1=C([O-])C(=c3cc4c(cc3NC(C)=O)=[N+](C)C(C)C4(C)C)C1=O)C(C)(C)C(C)N2C (stereo not drawn) [Example A11-20, reference compound] ?
618

Could you share which λc value was measured for CCCC(C)(C)C(=O)Nc1cc2c(cc1C1=C([O-])C(=c3cc4c(cc3NC(=O)C(C)(C)CCC)=[N+](C)C(C)C4(C)C)C1=O)C(C)(C)C(C)N2C (stereo not drawn) [Example A11-14] ?
621

Could you share which λc value was measured for CC(CCC(C(=O)Nc1cc2c(cc1C1=C([O-])C(=c3cc4c(cc3NC(=O)C(CCC(C)CC(C)(C)C)C(C)CC(C)(C)C)=[N+](C)C(C)C4(C)C)C1=O)C(C)(C)C(C)N2C)C(C)CC(C)(C)C)CC(C)(C)C (stereo not drawn) [Example A11-4] ?
625

Could you share which λc value was measured for CCCCC(CC)C(=O)Nc1cc2c(cc1C1=C([O-])C(=c3cc4c(cc3NC(=O)C(CC)CCCC)=[N+](C)C(C)C4(C)C)C1=O)C(C)(C)C(C)N2C (stereo not drawn) [Example A11-2] ?
625

----------
Here the recorded λa is given for each entry.
TEST DESCRIPTION: Absorption characteristics: transmission spectrum of near-infrared absorbing layer of NIR filter (UV-visible spectrophotometer)
Type: physicochemical
MEASUREMENT SETUP: transparent resin polycarbonate SP3810, nd(B) 1.63, film thickness 2.8 μm
Numeric answer only, unit nm assumed.

Check out these entries, answers already filled in.
[[record]]
compound = "CCCCC(CC)C(=O)Nc1cc2c(cc1C1=C([O-])C(=c3cc4c(cc3NC(=O)C(CC)CCCC)=[N+](C)C(C)C4(C)C)C1=O)C(C)(C)C(C)N2C (stereo not shown) [Example A11-2]"
obs_value = 694

[[record]]
compound = "CCCC(CCC)C(=O)Nc1cc2c(cc1C1=C([O-])C(=c3cc4c(cc3NC(=O)C(CCC)CCC)=[N+](C)C(C)C4(C)C)C1=O)C(C)(C)C(C)N2C (stereo not shown) [Example A11-1]"
obs_value = 695

[[record]]
compound = "CCCC(C)(C)C(=O)Nc1cc2c(cc1C1=C([O-])C(=c3cc4c(cc3NC(=O)C(C)(C)CCC)=[N+](C)C(C)C4(C)C)C1=O)C(C)(C)C(C)N2C (stereo not shown) [Example A11-14]"
obs_value = 689


Continue with the compound presented below.
Could you share which λa value was measured for CCCCC(CC)C(=O)Nc1cc2c(cc1C1=C([O-])C(=c3cc4c(cc3NC(=O)C(CC)CCCC)=[N+](C(C)C)C(C)C4(C)C)C1=O)C(C)(C)C(C)N2C(C)C (stereo not shown) [Example A11-7] ?
700

----------
TEST DESCRIPTION: Absorption characteristics: transmission spectrum of near-infrared absorbing layer of NIR filter (UV-visible spectrophotometer)
Format: physicochemical
MEASUREMENT SETUP: transparent resin polycarbonate SP3810, nd(B) 1.63, film thickness 2.8 μm
Description: Further, the transmittance of the near-infrared absorbing layer can be measured by using an ultraviolet visible light spectrophotometer. For example, when the near-infrared absorbing layer is provided on a glass substrate, the transmittance is calculated by subtracting the transmittance of only the glass substrate. […]
Here the recorded λmax is given for each entry.
Numeric answer only, unit nm assumed.

Could you share which λmax value was measured for CC(=O)Nc1cc2c(cc1C1=C([O-])C(=c3cc4c(cc3NC(C)=O)=[N+](C)C(C)C4(C)C)C1=O)C(C)(C)C(C)N2C (stereo not drawn) [Example A11-20, reference compound] ?
710

Could you share which λmax value was measured for CCCCC(CC)C(=O)Nc1cc2c(cc1C1=C([O-])C(=c3cc4c(cc3NC(=O)C(CC)CCCC)=[N+](C(C)C)C(C)C4(C)C)C1=O)C(C)(C)C(C)N2C(C)C (stereo not drawn) ?
716

Could you share which λmax value was measured for CCCC(CCC)C(=O)Nc1cc2c(cc1C1=C([O-])C(=c3cc4c(cc3NC(=O)C(CCC)CCC)=[N+](C)C(C)C4(C)C)C1=O)C(C)(C)C(C)N2C (stereo not drawn) ?
711
